target: full-length human PKCι (Homo sapiens); construct: Recombinant, full-length human PKCι expressed in Sf21 insect cells is also commercially available; assay: PKCι IC50 IMAP assay, full-length PKCι at 150 μM ATP; conditions: read-out: IC50 in IMAP assay against full length PKCi at 150 μM ATP

COMPOUND | IC50
c1ccc(Nc2cc(-c3nc(N4C[C@@H]5C[C@H]4CN5)c4ccncc4n3)ccn2)cc1 [Example 306] | 1000 to 10000 nM
COc1cncc2nc(-c3ccncc3)nc(N3CC[C@H](O)C3)c12 [Example 50] | 10000 to 40000 nM
C[C@@H](Nc1cc(-c2nc(N3CCNCC3)c3c(C4CC4)cncc3n2)ccn1)c1c(F)cccc1F [Example 653] | < 100 nM
c1cc(-c2nc(N3CCNCC3)c3c(C4CCC4)cncc3n2)c2cc(C3CCCCC3)[nH]c2n1 [Example 2153] | < 100 nM
COc1cncc(Nc2cc(-c3nc(N4CCNCC4)c4c(OC)cncc4n3)ccn2)c1 [Example 424] | < 100 nM
FC(F)(F)[C@H]1CN(c2nc(-c3ccnc4[nH]ccc34)nc3cncc(C4CC4)c23)CCN1 [Example 1213] | < 100 nM
C[C@@H](Nc1cc(-c2nc(N3CCNCC3)c3c(C4CC4)cncc3n2)ccn1)c1cccc(F)c1 [Example 644] | < 100 nM
CC(Nc1cc(-c2nc(N3CCNCC3)c3c(C4CC4)cncc3n2)ccn1)C1CCCO1 (stereo not shown) [Example 2066] | < 100 nM
CC1(C)CC(Nc2cc(-c3nc(N4CCNCC4)c4c(C5CC5)cncc4n3)ccn2)c2ccccc21 (stereo not shown) [Example 2177] | < 100 nM
CN1CCN(c2cccc(Nc3cc(-c4nc(N5CCC[C@H](O)C5)c5c(C6CC6)cncc5n4)ccn3)c2)CC1 [Example 737] | < 100 nM

----------
target: full-length human PKCι (Homo sapiens); construct: Recombinant, full-length human PKCι expressed in Sf21 insect cells is also commercially available; experiment: PKCι IC50 IMAP assay, full-length PKCι at 150 μM ATP; details: read-out: IC50 in IMAP assay against full length PKCi at 150 μM ATP
# Lookup of reported IC50 keyed by entry
PROPERTY_MEASURED: IC50

COMPOUND | TESTED_ON | PROPERTY_MEASURED | ENDPOINT_VALUE
COc1cncc2nc(-c3ccnc(Nc4ccc(-c5ccccc5)nc4)c3)nc(N3CCNCC3)c12 [Example 392] | full-length human PKCι (Homo sapiens) | IC50 | < 100 nM
CN1CCN(c2cccc(Nc3cc(-c4nc(N5CCCC5)c5c(C6CC6)cncc5n4)ccn3)c2)CC1 [Example 760] | full-length human PKCι (Homo sapiens) | IC50 | 100 to 1000 nM
Cc1ccnc(Nc2cc(-c3nc(N[C@@H]4CCNC4)c4ccncc4n3)ccn2)c1 [Example 338] | full-length human PKCι (Homo sapiens) | IC50 | 1000 to 10000 nM
Fc1ccc(F)c2c1[nH]c1nccc(-c3nc(N4CCNCC4)c4c(C5CC5)cncc4n3)c12 [Example 2027] | full-length human PKCι (Homo sapiens) | IC50 | < 100 nM

----------
biological target: full-length human PKCι (Homo sapiens, UniProt P41743); construct: Recombinant, full-length human PKCι expressed in Sf21 insect cells is also commercially available; test: PKCι IC50 IMAP assay, full-length PKCι at 150 μM ATP; conditions: read-out: IC50 in IMAP assay against full length PKCi at 150 μM ATP
Sequence (P41743 whole entry): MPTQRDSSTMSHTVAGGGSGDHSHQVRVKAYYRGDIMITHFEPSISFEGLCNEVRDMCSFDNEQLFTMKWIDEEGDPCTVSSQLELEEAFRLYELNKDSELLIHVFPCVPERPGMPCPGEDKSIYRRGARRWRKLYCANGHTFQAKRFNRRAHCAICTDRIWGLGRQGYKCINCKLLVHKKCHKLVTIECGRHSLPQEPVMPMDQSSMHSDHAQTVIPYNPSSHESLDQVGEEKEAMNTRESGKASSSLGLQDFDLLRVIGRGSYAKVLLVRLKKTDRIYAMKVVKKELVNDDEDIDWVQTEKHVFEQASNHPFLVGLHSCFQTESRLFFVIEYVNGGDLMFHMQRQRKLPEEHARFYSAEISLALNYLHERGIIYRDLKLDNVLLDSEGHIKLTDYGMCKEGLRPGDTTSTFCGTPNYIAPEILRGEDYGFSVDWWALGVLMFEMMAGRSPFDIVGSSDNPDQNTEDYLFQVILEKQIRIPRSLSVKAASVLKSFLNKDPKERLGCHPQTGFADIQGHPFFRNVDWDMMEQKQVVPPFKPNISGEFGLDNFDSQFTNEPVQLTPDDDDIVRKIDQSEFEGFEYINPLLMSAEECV
# Lookup of reported IC50 keyed by entry
PROPERTY_MEASURED: IC50

MOLECULE | ENDPOINT_VALUE
COc1ccc(Cl)c(Nc2cc(-c3nc(N4CCNCC4)c4c(C5CC5)cncc4n3)ccn2)c1 | < 100 nM
COc1cncc2nc(-c3ccnc(Nc4ccc(C#N)cc4F)c3)nc(N3CCNCC3)c12 | 100 to 1000 nM
C[C@@H](N)CNc1nc(-c2ccncc2)nc2cnccc12 | 1000 to 10000 nM
NC[C@H](Cc1ccccc1)Nc1nc(-c2ccncc2)nc2cnccc12 | 100 to 1000 nM
COc1ncccc1Nc1cc(-c2nc(N3CCNCC3)c3c(C4CC4)cncc3n2)ccn1 | < 100 nM
COc1cncc2nc(-c3ccnc(Nc4ccc(C)nc4)c3)nc(N3CCNCC3)c12 | < 100 nM
